- target.or.test.system: T1, human VPAC2 receptor (human, UniProt P41587 24-438)
- T1 sequence (looked up): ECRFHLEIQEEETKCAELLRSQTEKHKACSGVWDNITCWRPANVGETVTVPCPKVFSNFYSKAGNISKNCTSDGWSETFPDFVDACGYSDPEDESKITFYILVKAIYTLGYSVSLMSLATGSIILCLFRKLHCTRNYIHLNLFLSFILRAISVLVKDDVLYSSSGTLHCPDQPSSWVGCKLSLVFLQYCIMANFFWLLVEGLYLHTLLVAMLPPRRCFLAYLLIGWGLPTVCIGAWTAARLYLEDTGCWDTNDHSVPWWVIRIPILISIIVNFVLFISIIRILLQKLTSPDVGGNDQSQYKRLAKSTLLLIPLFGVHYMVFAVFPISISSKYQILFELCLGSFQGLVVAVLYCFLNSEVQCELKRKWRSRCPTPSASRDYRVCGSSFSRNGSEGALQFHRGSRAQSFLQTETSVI
- procedure.text: cell-based or functional assay
Where no end group is shown, it is not given here. [ ]: non-standard residue; d: D form. The star is where a group is joined. Orn = NCCC[C@H](N)C(=O)O; Hexanoyl = CCCCCC(=O)*; Aib = CC(C)(N)C(=O)O
endpoint.label: EC50 cAMP, Alpha Screen (nM)
Numeric answer only, unit nM assumed.

Below: 4 binders and their reported EC50 cAMP, Alpha Screen.
[[record]]
binder = "Hexanoyl-HSDAVFTDNYTALR[Aib]QVAA[Aib]KYLQSI[Orn]N[Orn]GGPSSGAPPPS [P366]"
endpoint_label = "EC50 cAMP, Alpha Screen"
meas_value = 2.6

[[record]]
binder = "Hexanoyl-HSDAVFTDNYTRLR[Aib]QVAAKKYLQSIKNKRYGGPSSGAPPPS (ends and bridges not checked) [P168]"
endpoint_label = "EC50 cAMP, Alpha Screen"
meas_value = 0.27

[[record]]
binder = "HSDAVFTDNYTXLRXQVAAXKYLQSIKNKRYGGPSSGAPPPS (N-terminal hexanoyl (C6); Orn at 12; Aib at 15, 20) [P344]"
endpoint_label = "EC50 cAMP, Alpha Screen"
meas_value = 0.13

[[record]]
binder = "Hexanoyl-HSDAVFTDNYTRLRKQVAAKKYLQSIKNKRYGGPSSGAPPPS (also called VPAC2-P31) [P31]"
endpoint_label = "EC50 cAMP, Alpha Screen"
meas_value = 0.13


Would you kindly look at the next entry?
(Q) Fill in: EC50 cAMP, Alpha Screen of Hexanoyl-HSDAVFTDNYTRLK[Aib]QVAA[Aib]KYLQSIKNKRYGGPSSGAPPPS (ends and bridges not checked) [P318] is ___
(A) 0.32
